# V183D/yield of C-glycoside(%) listing for each entry below
TARGET OR SYSTEM: AbCGT V183D (Aloe vera, UniProt A0A7G9P699, V183D)
Sequence (A0A7G9P699 1-470 V183D): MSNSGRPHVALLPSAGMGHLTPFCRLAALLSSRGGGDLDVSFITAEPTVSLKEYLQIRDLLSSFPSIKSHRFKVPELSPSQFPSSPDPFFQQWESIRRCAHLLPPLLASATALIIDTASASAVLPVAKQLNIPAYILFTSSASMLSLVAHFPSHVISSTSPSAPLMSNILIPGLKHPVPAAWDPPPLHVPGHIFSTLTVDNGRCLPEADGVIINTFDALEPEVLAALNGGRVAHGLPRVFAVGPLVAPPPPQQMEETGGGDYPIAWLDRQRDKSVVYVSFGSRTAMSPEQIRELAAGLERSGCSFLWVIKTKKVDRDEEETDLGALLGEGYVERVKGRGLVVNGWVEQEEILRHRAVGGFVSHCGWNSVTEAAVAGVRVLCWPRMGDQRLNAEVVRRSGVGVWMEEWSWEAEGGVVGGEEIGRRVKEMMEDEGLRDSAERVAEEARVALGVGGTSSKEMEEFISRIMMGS
PROTOCOL DETAILS: Glycosyltransferase activity of AbCGT variant V183D
Type: biochemical, Aloe barbadensis
PARTICULARS: reaction-1
Reply numerically in %, unit not repeated.

Solved cases below.
In [3]: df
Out[3]:
                                   compound                  quantity_name  assay_value
0                         CC(=O)c1ccc(O)cc1  V183D/yield of C-glycoside(%)            0
1                  COc1cc(O)c(C(C)=O)c(O)c1  V183D/yield of C-glycoside(%)          6.8
2                           CC(=O)c1ccccc1O  V183D/yield of C-glycoside(%)            0
3                         CC(=O)c1cccc(O)c1  V183D/yield of C-glycoside(%)            0
4                     CC(=O)c1c(O)cc(C)cc1O  V183D/yield of C-glycoside(%)            8
5  O=C1CC(O)(c2ccc(O)cc2)Oc2cc(O)cc(O)c21 (centres unmarked) [Compound 23, 2-hydroxynaringenin]  V183D/yield of C-glycoside(%)         99.3

Inquiry: Record request: V183D/yield of C-glycoside(%) value, item COc1cc(O)c(C(C)=O)c(OC)c1
Reply text: 0

Inquiry: Record request: V183D/yield of C-glycoside(%) value, item CC(=O)c1cc(O)cc(O)c1 [Compound 4, 3,5-dihydroxyacetophenone]
Reply text: 0

Inquiry: Record request: V183D/yield of C-glycoside(%) value, item Oc1cc(O)cc(OCCCCCCc2ccccc2)c1
Reply text: 0

Inquiry: Record request: V183D/yield of C-glycoside(%) value, item CC(=O)c1ccc(O)cc1O [Compound 6, 2,4-dihydroxyacetophenone]
Reply text: 13.9

Inquiry: Record request: V183D/yield of C-glycoside(%) value, item CC(=O)c1c(O)cccc1O
Reply text: 8.2
